molecular target: T1, human MSLN-R3-3 polypeptide (human); assay: ELISA on coated antigen, antibody 0.0001 nM
T1 construct: also called human MSLN-R3-3 protein; hMSLN-R3-3
quantity: OD450 (OD450)

binder="S009-F2.23.12 (antibody, human IgG1, kappa, V domains shown, Human-murine chimeric antibody: murine VH/VL on human IgG1 heavy and kappa light constant regions) VH: QVQLQQPGTELVKPGASVKLSCKASGYTFTNYWMHWVKQRPGQGLEWIGNINPSNGGPYYNERFRSKATLTVDKSSSTAYMQLSSLTSEDSAVYYCARPYYGSSYGYFDYWGQGTTLTVSS VL: DIQMTQSPSSLSASLGGKVTITCKASQDINKYIAWYQHKPGKGPRLLIHYTSELQPGIPSRFSGNGSGRDYSFSISNLEPEDIATYYCLQYANPLRTFGGGTKLEIKR" unit_text=OD450 assay_value=0.05
